System: PD1-ss+10aa/Gaussia Luciferase
MEASUREMENT NOTES: Dox-Induced PD1-ss-Gluc Assay
Type: cell-based
CONDITION SUMMARY: read-out: 24 hr Dox Inducible PD1ssGluc 293FRT/TO: Mean IC50; Flp-In 293 T-REx cells, 24 hours with doxycycline; Table 3
Can you tell me pIC50 for the items I'm about to list?
One number for each entry, as −log10 of the molar value.

Past entries and their recorded results:
{"SMILES TEXT": "O=C(Nc1nc(/C=C/c2ncoc2CO)cs1)c1cccn1Cc1ccnc(F)c1", "TEST TARGET": "PD1-ss+10aa/Gaussia Luciferase", "pIC50": 5.05}
{"SMILES TEXT": "CC(C)n1cnc(F)c1/C=C/c1csc(NC(=O)c2cccn2Cc2ccnc(F)c2)n1", "TEST TARGET": "PD1-ss+10aa/Gaussia Luciferase", "pIC50": 5.35}

We now examine a further molecule.
# query: pIC50 of entry `Cc1sc(NC(=O)c2cccn2Cc2ccnc(F)c2)nc1/C=C/c1cn(C(C)C)cn1` 7.23
